Origin of values: ChEMBL document CHEMBL4819034

- PROCEDURE_SUMMARY: Metabolic stability in human liver microsomes assessed as parent compound remaining; note: time not given here
- Assay type: ADME, Microsome
RECORDED_METRIC: Stabilty (%)

O=C(N[C@@H]1CC[C@@]2(S(=O)(=O)c3ccc(F)cc3)c3ccc(C(F)(C(F)(F)F)C(F)(F)F)cc3CC[C@@H]12)C1(O)CCCCC1 = 50
CC(C)(C(=O)N[C@@H]1CC[C@@]2(S(=O)(=O)c3ccc(F)cc3)c3ccc(C(F)(C(F)(F)F)C(F)(F)F)cc3CC[C@@H]12)N1CCNCC1 = 74
CC(C)(O)CNC(=O)N[C@@H]1CC[C@@]2(S(=O)(=O)c3ccc(F)cc3)c3ccc(C(F)(C(F)(F)F)C(F)(F)F)cc3CC[C@@H]12 = 54
[2H]C([2H])([2H])N1C(=O)C(F)CC1C(=O)N[C@@H]1CC[C@@]2(S(=O)(=O)c3ccc(F)cc3)c3ccc(C(F)(C(F)(F)F)C(F)(F)F)cc3CC[C@@H]12 (single isomer, unassigned) = 100
CC(C)(O)C(=O)N[C@@H]1CC[C@@]2(S(=O)(=O)c3ccc(F)cc3)c3ccc(C(F)(C(F)(F)F)C(F)(F)F)cc3CC[C@@H]12 = 100
CC(C)(N)CC(=O)N[C@@H]1CC[C@@]2(S(=O)(=O)c3ccc(F)cc3)c3ccc(C(F)(C(F)(F)F)C(F)(F)F)cc3CC[C@@H]12 = 98

P: CNC(=O)N[C@@H]1CC[C@@]2(S(=O)(=O)c3ccc(F)cc3)c3ccc(C(F)(C(F)(F)F)C(F)(F)F)cc3CC[C@@H]12
Q: CC(C)(O)CC(=O)N[C@@H]1CC[C@@]2(S(=O)(=O)c3ccc(F)cc3)c3ccc(C(F)(C(F)(F)F)C(F)(F)F)cc3CC[C@@H]12
R: CC(=O)N1CCC(C(=O)N[C@@H]2CC[C@@]3(S(=O)(=O)c4ccc(F)cc4)c4ccc(C(F)(C(F)(F)F)C(F)(F)F)cc4CC[C@@H]23)CC1
Sort by Stabilty, descending. Sort the labels as requested; that list is your answer. Q, R, P
(Q: 97%, R: 61%, P: 40%)

* * *

- PROCEDURE_SUMMARY: Metabolic stability in mouse liver microsomes assessed as parent compound remaining; note: time not given here
- Format: ADME, Microsome
RECORDED_METRIC: Stabilty (%)

CC(C)(O)C(=O)N[C@@H]1CC[C@@]2(S(=O)(=O)c3ccc(F)cc3)c3ccc(C(F)(C(F)(F)F)C(F)(F)F)cc3CC[C@@H]12 = 92
O=C(N[C@@H]1CC[C@@]2(S(=O)(=O)c3ccc(F)cc3)c3ccc(C(F)(C(F)(F)F)C(F)(F)F)cc3CC[C@@H]12)C1(O)CCNCC1 = 88
CC(=O)N[C@@H]1CC[C@@]2(S(=O)(=O)c3ccc(F)cc3)c3ccc(C(F)(C(F)(F)F)C(F)(F)F)cc3CC[C@@H]12 = 90
